Where these numbers come from: patent US20250051449A1

Target: T1, human CD112R expressed on Jurkat cells (human, UniProt Q6DKI7 1-326)
T1 construct: whole, on cells; Used for both Jurkat-CD112R OE cells and wild type Jurkat cells; which cells is said under assay; also called PVRIG; Jurkat-CD112R OE
T1 sequence (looked up): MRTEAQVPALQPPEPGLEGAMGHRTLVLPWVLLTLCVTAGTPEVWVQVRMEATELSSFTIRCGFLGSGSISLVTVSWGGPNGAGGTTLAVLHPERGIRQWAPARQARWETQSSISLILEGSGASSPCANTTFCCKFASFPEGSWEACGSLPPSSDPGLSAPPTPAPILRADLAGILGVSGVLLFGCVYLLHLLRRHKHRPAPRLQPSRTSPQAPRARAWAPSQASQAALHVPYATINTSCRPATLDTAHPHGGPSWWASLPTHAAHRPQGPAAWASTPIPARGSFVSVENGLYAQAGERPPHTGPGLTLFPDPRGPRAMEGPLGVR
Assay notes: flow cytometry, Jurkat cells over-expressing human CD112R, 0.63 ug/mL antibody
Value kind: gMFI (fold increase over isotype)

Illustrative cases are given below, each with its answer.
Antibody 44 (antibody, V domains shown, Purified as IgG; compared with an IgG1 isotype control and detected with anti-human IgG Fc; also called antibody clone number 44; clone 44) VH: QVQLVQSGAEVKKPGSSVKVSCKASGGTFDNYYISWVRQAPGQGLEWMGGIFPIFGTANYAQKFQGRVTITADESTSTAYMELSSLRSEDTAVYYCAREVGHYSGSPYYMDVWGKGTTVTVSS VL: DIQMTQSPSTLSASVGDRVTITCRASQSINSWLAWYQQKPGKAPKLLISDASSLESGVPSRFSGSGSGTEFTLTISSLQPDDFATYYCQQVGPYLTFGGGTKVEIK | 46.9 fold increase over isotype
Antibody 5 (antibody, V domains shown, Purified as IgG; compared with an IgG1 isotype control and detected with anti-human IgG Fc; also called antibody clone number 5; clone 5) VH: EVQLLESGGGLVQPGGSLRLSCAASGFTFSDYAMIWVRQAPGKGLEWVSAISGGGESTYYADSVKGRFTISRDNSKNTLYLQMNSLRAEDTAVYYCAKDYSSGDWIDYGMDVWGQGTTVTVSS VL: DIQMTQSPSSLSASVGDRVTITCQASQDISNYLNWYQQKPGKAPKLLIYDASNLATGVPSRFSGSGSGTDFTFTISSLQPEDIATYYCQQFDLLPPTFGGGTKVEIK | 63.3 fold increase over isotype

## Task Requested field: gMFI (fold increase over isotype). Item: Antibody 2 (antibody, V domains shown, Purified as IgG; compared with an IgG1 isotype control and detected with anti-human IgG Fc; also called antibody clone number 2; clone 2) VH: EVQLVESGGGLVKPGGSLRLSCAASGFTFSEYTMNWVRQAPGKGLEWVSAIVGSGDSTYYADSVKGRFTISRDNSKNTLYLQMNSLRAEDTAVYYCAKDYSSGDWIDYGMDVWGQGTTVTVSS VL: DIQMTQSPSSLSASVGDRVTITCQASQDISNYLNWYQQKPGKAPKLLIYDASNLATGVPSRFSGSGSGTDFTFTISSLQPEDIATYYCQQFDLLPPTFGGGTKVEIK
## Result 63.9 fold increase over isotype
